System: Steroid 17-alpha-hydroxylase/17,20 lyase (Homo sapiens, UniProt P05093) | Read-out: inhibition at 2.5 µM
Sequence (P05093 whole entry): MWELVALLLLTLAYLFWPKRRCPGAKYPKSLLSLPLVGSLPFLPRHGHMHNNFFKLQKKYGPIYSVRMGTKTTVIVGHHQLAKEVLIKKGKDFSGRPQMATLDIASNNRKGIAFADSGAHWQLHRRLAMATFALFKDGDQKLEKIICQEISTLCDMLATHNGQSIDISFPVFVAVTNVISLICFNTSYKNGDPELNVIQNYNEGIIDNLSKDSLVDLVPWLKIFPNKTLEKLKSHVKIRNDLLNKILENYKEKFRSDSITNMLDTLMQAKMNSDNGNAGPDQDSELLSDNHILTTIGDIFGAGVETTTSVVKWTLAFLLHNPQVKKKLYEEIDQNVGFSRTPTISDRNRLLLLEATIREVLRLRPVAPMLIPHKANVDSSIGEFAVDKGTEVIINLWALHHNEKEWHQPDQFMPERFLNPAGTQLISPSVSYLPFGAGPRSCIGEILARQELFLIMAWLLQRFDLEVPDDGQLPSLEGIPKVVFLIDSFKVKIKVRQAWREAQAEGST
MEASURE_NAME: inhibition at 2.5 µM (%)

{"STRUCTURE": "O=c1c2ccccc2oc2cc(Cn3cnnc3)ccc12", "inhibition at 2.5 µM / %": 8}
{"STRUCTURE": "N#Cc1ccc(Cn2ccnc2)c2c(=O)c3ccccc3oc12", "inhibition at 2.5 µM / %": 92}
{"STRUCTURE": "N#Cc1ccc(Cn2ccnc2)c2occc(=O)c12", "inhibition at 2.5 µM / %": 3}
{"STRUCTURE": "O=c1ccoc2c(Cn3ccnc3)ccc([N+](=O)[O-])c12", "inhibition at 2.5 µM / %": 5}

A = O=c1c2ccccc2oc2c(Cn3ccnc3)ccc([N+](=O)[O-])c12
B = O=c1c2ccccc2oc2c([N+](=O)[O-])ccc(Cn3ccnc3)c12
Inquiry: Which record would sort first by descending inhibition at 2.5 µM, A or B ? Mark your selection by writing its label.
Reply text: B

----------
species on record: Homo sapiens
MEASURE_NAME: Km (µM)
Just the number in µM, nothing appended.

Inquiry: Identify measured Km associated with O=c1c2ccccc2oc2c(Cn3ccnc3)ccc([N+](=O)[O-])c12
Reply text: 0.0651

----------
System: Steroid 17-alpha-hydroxylase/17,20 lyase (Homo sapiens, UniProt P05093) | Read-out: inhibition at 2.5 µM
MEASURE_NAME: inhibition at 2.5 µM (%)

{"STRUCTURE": "O=c1c2ccccc2oc2c(Cn3ccnc3)ccc(Br)c12", "inhibition at 2.5 µM [%]": 38}

A = O=c1c2ccccc2oc2cc(Cn3ccnc3)ccc12
B = COc1ccc2c(=O)c(Cn3cnnc3)c(-c3ccccc3)oc2c1
Inquiry: Select one. Lower inhibition at 2.5 µM: A or B Mark your selection by writing its label.
Reply text: B

a = O=c1ccoc2cc(Cn3ccnc3)ccc12
b = O=c1c2ccccc2oc2c(Br)ccc(Cn3ccnc3)c12
Inquiry: Which record would sort first by descending inhibition at 2.5 µM, a or b ? Mark your selection by writing its label.
Reply text: b
(b: 98%, a: 9%)

I = O=c1ccoc2c(Cn3ccnc3)ccc(Br)c12
II = COc1ccc2c(=O)c(Cn3ccnc3)c(-c3ccccc3)oc2c1
Inquiry: Select one. Lower inhibition at 2.5 µM: I or II Mark your selection by writing its label.
Reply text: I
(I: 26%, II: 44%)

I = N#Cc1ccc(Cn2ccnc2)c2oc3ccccc3c(=O)c12
II = O=c1ccoc2cc(Cn3cnnc3)ccc12
Inquiry: Select one. Lower inhibition at 2.5 µM: I or II Mark your selection by writing its label.
Reply text: II
(II: 5%, I: 14%)
